Taken from the CheMixHub drug solubility set.

test: xn = mol fraction of the nth substance listed, in the solute-free solvent; conditions: 323.15 K; x2 = 0.8
Binary call on solubility (g/100 g solution): fulfilled from 20 upward, not fulfilled beneath that.

{"Compound": "CCCCN1CCCCC1C(=O)Nc1c(C)cccc1C.Cl.O (stereo not given) + CCO + O", "Qualitative label": "not fulfilled"}
{"Compound": "CCOC(=O)C1=CC2(CC)CCCN3CCc4c(n1c1ccccc41)C32 (stereo not given) + CCO + O", "Qualitative label": "not fulfilled"}
{"Compound": "CCCCN1CCCCC1C(=O)Nc1c(C)cccc1C.Cl.O (stereo not given) + CO + O", "Qualitative label": "fulfilled"}
{"Compound": "CC1(C)SC2C(NC(=O)C(NC(=O)N3CCNC3=O)c3ccccc3)C(=O)N2C1C(=O)O (stereo not given) + CCO + CC(C)O", "Qualitative label": "not fulfilled"}
{"Compound": "CC1(C)SC2C(NC(=O)C(NC(=O)N3CCNC3=O)c3ccccc3)C(=O)N2C1C(=O)O (stereo not given) + CO + CC(C)O", "Qualitative label": "not fulfilled"}
